Test system: RXF 393 renal
Assay: NCI-60 one-dose screen, 48 h
Details: 10 µM unless noted
About 83,000 compounds went through this panel and 20% of them were active in at least one assay; those are over-represented in the sample as a whole. Calls of active or inactive are those of the source. The calls were made as follows: active = growth percent below 10; inactive = the rest.
One label from this list, please: active, inactive

# item.smiles, group
data = [
    ("Clc1cccc(-c2cc(-c3ccc4c(c3)OCCO4)[nH]n2)c1", "active"),
    ("COc1ccc(C2=C(c3cc(OC)c(OC)c(OC)c3)C(=O)CC2)cc1", "active"),
]

Then this compound:
What did this assay record as the result for CN(CCCCN(C[C@H]1Cc2ncccc2CN1)[C@H]1CCCc2cccnc21)C1CCC(F)(F)CC1 ?
inactive

====

Test system: SK-MEL-2 melanoma
Assay: NCI-60 one-dose screen, 48 h (100 = growth as untreated, 0 = no growth, -100 = all killed)
Conditions: 10 µM unless noted
About 83,000 compounds went through this panel and 20% of them were active in at least one assay; those are over-represented in the sample as a whole.
observed.property: growth (%)
Report only the number, with the unit % understood.

Field: example entries. Status: answers known.
# molecule, target.or.test.system, growth, %
records = [
    ("COc1ccc(-c2nc(/C=N/Nc3cc(C)nc4ccc(Cl)cc34)c(C)o2)cc1", "SK-MEL-2 melanoma", 101),
    ("CC(C)(C)n1cc(-c2ccnc(NCCNS(=O)(=O)c3ccc(C(F)(F)F)cc3)c2)c(-c2cccc(O)c2)n1", "SK-MEL-2 melanoma", 66.5),
    ("NC(N)=N/N=C/c1ccc(-c2ccc(-c3cc(Cl)cc(Cl)c3)s2)cc1", "SK-MEL-2 melanoma", 103),
    ("O=C(Nc1cccc(-n2cc(-c3ccncc3)c(-c3ccc(Cl)c(O)c3)n2)c1)c1ccccc1", "SK-MEL-2 melanoma", 67.9),
    ("COc1ccc(S(=O)(=O)NCCCNc2nccc(-c3c(-c4cccc([N+](=O)[O-])c4)nc4sccn34)n2)cc1", "SK-MEL-2 melanoma", 41.4),
    ("COc1cc(-c2nn(-c3cccc(NC(=O)Nc4ccc(Cl)c(C(F)(F)F)c4)c3)cc2-c2ccncc2)ccc1Cl", "SK-MEL-2 melanoma", -57.8),
    ("CCNc1nc(S(=O)(=O)CC)nc2ccccc12", "SK-MEL-2 melanoma", 94.6),
    ("CCn1c2ccccc2c2cc(NC(=O)Nc3ccc([N+](=O)[O-])cc3C)ccc21", "SK-MEL-2 melanoma", 53),
    ("COc1cc(-c2nn(C(=O)NS(=O)(=O)c3ccccc3)cc2-c2ccncc2)ccc1Cl", "SK-MEL-2 melanoma", 94.8),
    ("CCO/C=N/C1=C(C#N)C(c2ccc(Cl)cc2)c2c(c3ccccc3n(C)c2=O)O1 (stereo not drawn)", "SK-MEL-2 melanoma", 85.4),
]

COc1cc(NCCCCCN)c2ncccc2c1 has a reported growth of 126

C=C1CCC2C3(C)COC(c4ccccc4)OC3CCC2(C)C1/C=C/C1=CCOC1=O (stereo not drawn) has a reported growth of 51.3

COc1ccc(-c2ccc(-c3ccc(-c4ccc(C(=N)N)cc4)s3)s2)cc1OC has a reported growth of 105

====

Test system: RXF 393 renal
Test: NCI-60 one-dose screen, 48 h
Settings: 10 µM unless noted
Compounds without any hit were thinned out: in the full panel of roughly 83,000, 20% have a hit. Active and inactive are the calls of the source. Rule for the calls: active = growth percent below 10; inactive = the rest.
One label from this list, please: yes (1) (active), no (0) (inactive)

// below: answered compounds
# compound, target.or.test.system, group
measured = [
    ("COc1ccc(-c2cc(-c3ccccc3)nc(SCCCC(=O)NO)n2)cc1OC", "RXF 393 renal", "yes (1)"),
    ("ClC(Cl)c1nc(-c2ccccc2)nc2cc(-c3ccccc3)nn12", "RXF 393 renal", "no (0)"),
]

What did this assay record as the result for COc1ccc(/C=C(\C#N)c2cc(OC)c3c(c2)OCO3)cc1 ?
no (0)

What did this assay record as the result for O=C(c1ccccc1)C1OC1c1ccc([N+](=O)[O-])cc1 (stereo not given) ?
no (0)

What did this assay record as the result for NC(N)=N/N=C/c1ccc(-c2ccc(-c3cc(Cl)cc(Cl)c3)s2)cc1 ?
no (0)

====

Tested on: MDA-MB-435 melanoma
Test: NCI-60 one-dose screen, 48 h (100 = growth as untreated, 0 = no growth, -100 = all killed)
Settings: 10 µM unless noted
The panel holds about 83,000 compounds, 20% with a hit somewhere; the sample as a whole holds those more often.
observed.property: growth (%)
Report only the number, with the unit % understood.

# compound, unit.info, numeric.value
data = [
    ("O=c1[nH]c2ccc(Br)cc2c2c1C(c1ccc(Cl)cc1)c1c(ncn3nc(-c4ccco4)nc13)O2 (stereo not given)", "%", 85.2),
    ("O=C(/C=C\\c1cccc([N+](=O)[O-])c1)/C=C/c1cccc([N+](=O)[O-])c1", "%", 36.7),
    ("COc1ccc(C(=O)c2cc(OC)c(OC)c(OC)c2OC)cc1O", "%", -24),
    ("CC(C)(C)n1cc(-c2ccnc(NCCCNS(=O)(=O)c3ccc(C(F)(F)F)cc3)c2)c(-c2cccc(O)c2)n1", "%", 32.2),
    ("CCN(CC)c1ccc(N=O)cc1", "%", 66.9),
    ("COc1ccc(C2C=C(c3ccc(OC)c(OC)c3)N=C3SC=C(C)N32)c(Br)c1 (stereo not given)", "%", 110),
    ("O=C(c1c[nH]c(=O)c(-c2ccccc2)c1)c1ccccc1O", "%", 96.7),
    ("CCN(CC)CCOc1ccc(/C(=C(/C)c2ccccc2)c2ccc(OC(C)=O)cc2)cc1", "%", 94.8),
]

OC(c1cc2cc(Br)ccc2c2cc(Br)ccc12)C1CCCCN1 (stereo not given) has a reported growth of -78

====

Tested on: 786-0 renal
Assay: NCI-60 one-dose screen, 48 h
Conditions: 10 µM unless noted
The panel holds about 83,000 compounds, 20% with a hit somewhere; the sample as a whole holds those more often. Calls of active or inactive are those of the source. The calls were made as follows: active = growth percent below 10; inactive = the rest.
One label from this list, please: active, inactive

// below: answered molecules
# item.smiles, target.or.test.system, group
measured = [
    ("COc1cc2c(=O)n(C3CCCCCC3)c3c4cc[nH]c4ncc3c2cc1OC", "786-0 renal", "inactive"),
    ("O=C1/C(=C/c2ccc([N+](=O)[O-])cc2)CN(C(=O)CCN2CCC(=NO)CC2)C/C1=C\\c1ccc([N+](=O)[O-])cc1", "786-0 renal", "active"),
    ("N=C(N)c1ccc(-c2ccc(-c3cncc4ccccc34)s2)cc1F", "786-0 renal", "active"),
]

Then this molecule:
What did this assay record as the result for COc1ccc(-c2nc3sc(-c4cc(OC)c(OC)c(OC)c4)nn3c2/C=C2/C(=O)Nc3ccc(F)cc32)cc1 ?
active

====

Tested on: MOLT-4 leukemia
Experiment: NCI-60 one-dose screen, 48 h (100 = growth as untreated, 0 = no growth, -100 = all killed)
Conditions: 10 µM unless noted
Compounds without any hit were thinned out: in the full panel of roughly 83,000, 20% have a hit.
We begin with a simple list: items and their reported growth.
Report only the number, with the unit % understood.

Field: example entries. Status: answers known.
# compound, unit.info, growth
measured = [
    ("CC(=O)Nc1ccc(S(=O)(=O)n2ccc(-c3ccc4c(c3)CCC(C)(C)O4)n2)cc1", "%", 50.7),
    ("CC(C)(C)n1cc(-c2ccnc(NCCNS(=O)(=O)c3ccc(F)cc3)c2)c(-c2cccc(O)c2)n1", "%", 35.3),
]

Clc1ccc2c(NC3CCC(NC4CCCCC4)CC3)ccnc2c1 (centres undefined) has a reported growth of 56.9

CCC(=O)Oc1ccc(/C(=C(/C)Cc2cccc(OC)c2)c2ccc(OCCN(C)C)cc2)cc1 has a reported growth of 68.4

====

We begin with a simple list: items and their reported growth.
Test system: HCT-116 colon
Experiment: NCI-60 one-dose screen, 48 h (100 = growth as untreated, 0 = no growth, -100 = all killed)
Settings: 10 µM unless noted
This is part of a sample that, as a whole, favours compounds with a hit. Of some 83,000 tested, about 20% had one in any assay.
Report only the number, with the unit % understood.

Bench note, HCT-116 colon: entry CC(=O)Nc1nc(N)nc(NC(C)=O)c1N=O , its growth = 98.6

Bench note, HCT-116 colon: entry COc1ccc2[nH]c(C(=O)OCc3ccc4c(Cl)cc(Cl)c(O)c4n3)cc2c1 , its growth = -92.3

Bench note, HCT-116 colon: entry O=C(c1ccccc1)c1c(/C=C/c2ccccc2)c2ccccc2[nH]c1=O , its growth = 100

Bench note, HCT-116 colon: entry COc1cc(-c2nc(-c3nc4ccc(Cl)cc4[nH]3)cc3c2[nH]c2ccccc23)cc(OC)c1OC , its growth = 58.7

Bench note, HCT-116 colon: entry CCOC(=O)C1C(=O)C=C(c2ccc(OC)cc2)CC1c1sc(N(C)Cc2ccccc2)nc1Cl (centres undefined) , its growth = 71.9

Bench note, HCT-116 colon: entry O=C(Nc1ccc2c(c1)OCCO2)C(=O)c1c[nH]c2ccccc12 , its growth = 14.7

Bench note, HCT-116 colon: entry Cc1c(C(N)=O)sc2c1c(=O)n(Cc1ccccc1)c1nnc(Nc3ccccc3)n21 , its growth = 94.2
